Origin of values: patent US20170275270A1

biological target: catalytic domain of human Bub1 (amino acids 704-1085) (Homo sapiens, UniProt O43683); construct: catalytic domain of human Bub1 (amino acids 704-1085); His6 (N); made in house; host or cells: Hi5 insect cells; assay: Bub1 kinase assay (TR-FRET); assay type: biochemical; details: Biological Assay 1: Bub1 kinase assay median IC50, 10 μM ATP
Sequence (O43683 704-1085): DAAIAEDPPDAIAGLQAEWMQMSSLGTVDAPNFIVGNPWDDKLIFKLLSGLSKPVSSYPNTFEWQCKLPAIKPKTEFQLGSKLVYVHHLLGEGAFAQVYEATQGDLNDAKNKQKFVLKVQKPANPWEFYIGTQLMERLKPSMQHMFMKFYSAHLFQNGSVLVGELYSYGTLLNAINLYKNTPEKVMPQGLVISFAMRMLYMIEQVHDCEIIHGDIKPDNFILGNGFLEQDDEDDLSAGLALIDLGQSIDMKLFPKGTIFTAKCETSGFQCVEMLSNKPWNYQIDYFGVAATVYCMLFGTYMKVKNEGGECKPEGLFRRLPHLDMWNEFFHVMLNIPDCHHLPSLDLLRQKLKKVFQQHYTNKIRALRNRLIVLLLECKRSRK
pIC50: −log10 of the molar value.

>  <MOLECULE>
CCOc1cc(F)c(Cn2nc(-c3nc4c(c(Nc5ccnc(C(F)(F)F)c5)n3)CNC4)c3ccccc32)c(F)c1

>  <pIC50>
5.48

$$$$
>  <MOLECULE>
CCOc1cc(F)c(Cn2nc(-c3nc(Nc4ccncc4OC)cc(C4CCCO4)n3)c3ccccc32)c(F)c1 (racemic)

>  <pIC50>
8.24

$$$$
>  <MOLECULE>
CCOc1cc(F)c(Cn2nc(-c3ncc(CCCSC)c(Nc4ccncc4)n3)c3ccccc32)c(F)c1

>  <pIC50>
7.92

$$$$
>  <MOLECULE>
COc1cnccc1Nc1nc(-c2nn(Cc3c(F)cc(OCCO)cc3F)c3ccccc23)nc2c1CCCCC2

>  <pIC50>
7.92

$$$$
>  <MOLECULE>
CCOc1cc(F)c(Cn2nc(-c3nc(Nc4ccnc(NC(C)=O)c4)cc([C@H](C)O)n3)c3ccccc32)c(F)c1

>  <pIC50>
7.96

$$$$
>  <MOLECULE>
CCOc1cc(F)c(Cn2nc(-c3nc4c(c(Nc5ccncc5Cl)n3)CCC4)c3ccccc32)c(F)c1

>  <pIC50>
8.01

$$$$
>  <MOLECULE>
CCOc1cc(F)c(Cn2nc(-c3ncc(CCCN4CCC(F)(F)CC4)c(Nc4ccncc4)n3)c3ccccc32)c(F)c1

>  <pIC50>
6.89

$$$$
